# System: MRSA (ATCC 43300)
# protocol-details: Minimal biofilm eradication concentration, MRSA in the biofilm
# Assay type: cell-based, methicillin-resistant Staphylococcus aureus
# reported-conditions: MRSA (ATCC 43300) in the biofilm
experimental-endpoint: MBEC (mg/L)

- compound: "CN[C@H](CC(C)C)C(=O)N[C@H]1C(=O)N[C@@H](CC(N)=O)C(=O)N[C@H]2C(=O)N[C@H]3C(=O)N[C@H](C(=O)N[C@H](C(=O)O)c4cc(O)cc(O)c4-c4cc3ccc4O)[C@H](O)c3ccc(c(Cl)c3)Oc3cc2cc(c3O[C@@H]2O[C@H](CO)[C@@H](O)[C@H](O)[C@H]2O[C@H]2C[C@](C)(N)[C@H](O)[C@H](C)O2)Oc2ccc(cc2Cl)[C@H]1O [Vancomycin, reference compound]"
  experimental-endpoint: "MBEC"
  qualifier-sign: "="
  endpoint-result: 1024
- compound: "O=C(Nc1ccc(Cl)c(C(F)(F)F)c1)C(CCCl)C(=O)Nc1ccc(Cl)c(C(F)(F)F)c1 [SC5005]"
  experimental-endpoint: "MBEC"
  qualifier-sign: "="
  endpoint-result: 16
- compound: "CC(=O)NC[C@H]1CN(c2ccc(N3CCOCC3)c(F)c2)C(=O)O1 [Linezolid]"
  experimental-endpoint: "MBEC"
  qualifier-sign: ">"
  endpoint-result: 1024
- compound: "CCCCCCCCCC(=O)N[C@@H](Cc1c[nH]c2ccccc12)C(=O)N[C@H](CC(N)=O)C(=O)N[C@@H](CC(=O)O)C(=O)N[C@@H]1C(=O)NCC(=O)N[C@@H](CCCN)C(=O)N[C@@H](CC(=O)O)C(=O)N[C@H](C)C(=O)N[C@@H](CC(=O)O)C(=O)NCC(=O)N[C@H](CO)C(=O)N[C@@H]([C@H](C)CC(=O)O)C(=O)N[C@@H](CC(=O)c2ccccc2N)C(=O)O[C@@H]1C [Daptomycin]"
  experimental-endpoint: "MBEC"
  qualifier-sign: "="
  endpoint-result: 1024

###

Below, each entry is listed alongside its reported MIC.
# Test system: S. aureus NCTC 8325
# protocol-details: MIC, S. aureus NCTC 8325 (CLSI broth microdilution / agar dilution)
# Format: cell-based, Staphylococcus aureus
# reported-conditions: Staphylococcus aureus; MSSA NCTC 8325; Table 6; read-out: MIC
experimental-endpoint: MIC

- molecule: "C=CCC(C(=O)Nc1cc(Cl)cc(Cl)c1)C(=O)Nc1cc(Cl)cc(Cl)c1 [SC5040]"
  experimental-endpoint: "MIC"
  endpoint-result: "> 32 µg/mL"
- molecule: "O=C(Nc1cc(C(F)(F)F)cc(C(F)(F)F)c1)C(CCCl)C(=O)Nc1cc(C(F)(F)F)cc(C(F)(F)F)c1 [SC5032]"
  experimental-endpoint: "MIC"
  endpoint-result: "32 µg/mL"
- molecule: "C=CCC(C(=O)Nc1cccc(CC)c1)C(=O)Nc1cccc(CC)c1 [SC5039]"
  experimental-endpoint: "MIC"
  endpoint-result: "> 32 µg/mL"
- molecule: "O=C(Nc1ccc([N+](=O)[O-])c(C(F)(F)F)c1)C(CCCl)C(=O)Nc1ccc([N+](=O)[O-])c(C(F)(F)F)c1 [SC5034]"
  experimental-endpoint: "MIC"
  endpoint-result: "1 µg/mL"
- molecule: "O=C(Nc1ccccc1)C(CCCl)C(=O)Nc1ccccc1 [SC5022]"
  experimental-endpoint: "MIC"
  endpoint-result: "> 8 µg/mL"
- molecule: "C=CCNC(=O)C(CCCl)C(=O)Nc1ccc(Cl)c(C(F)(F)F)c1 (stereo not drawn) [SC5050]"
  experimental-endpoint: "MIC"
  endpoint-result: "> 64 µg/mL"
- molecule: "CCCCNC(=O)C(CCCl)C(=O)Nc1ccc(Cl)c(C(F)(F)F)c1 (stereo not drawn) [SC5052]"
  experimental-endpoint: "MIC"
  endpoint-result: "> 64 µg/mL"
- molecule: "CCCNC(=O)C(CCCl)C(=O)NCCC [SC5046]"
  experimental-endpoint: "MIC"
  endpoint-result: "> 64 µg/mL"
- molecule: "CCCCNC(=O)C(CCCl)C(=O)NCCCC [SC5047]"
  experimental-endpoint: "MIC"
  endpoint-result: "> 64 µg/mL"

###

# Tested on: MRSA ATCC 33592
# protocol-details: MIC, MRSA ATCC 33592
# Type: cell-based, methicillin-resistant Staphylococcus aureus
# reported-conditions: Staphylococcus aureus; MRSA ATCC 33592; Table 6; read-out: MIC

- molecule: "O=C(NC1CCCCC1)C(CCCl)C(=O)NC1CCCCC1 [SC5048]"
  target-desc: "MRSA ATCC 33592"
  MIC: "> 64 µg/mL"
- molecule: "O=C(Nc1cccc(C(F)(F)F)c1)C(CCCl)C(=O)Nc1cccc(C(F)(F)F)c1 [SC5023]"
  target-desc: "MRSA ATCC 33592"
  MIC: "1 µg/mL"
- molecule: "CCCNC(=O)C(CCCl)C(=O)Nc1ccc(Cl)c(C(F)(F)F)c1 (centres unmarked) [SC5049]"
  target-desc: "MRSA ATCC 33592"
  MIC: "> 64 µg/mL"
- molecule: "C=CCC(C(=O)Nc1cccc(CC)c1)C(=O)Nc1cccc(CC)c1 [SC5039]"
  target-desc: "MRSA ATCC 33592"
  MIC: "> 32 µg/mL"
- molecule: "O=C(Nc1cc(Cl)cc(Cl)c1)C(CCCl)C(=O)Nc1ccc([N+](=O)[O-])c(C(F)(F)F)c1 (centres unmarked) [SC5041]"
  target-desc: "MRSA ATCC 33592"
  MIC: "0.5 µg/mL"

###

Below, each entry is listed alongside its reported MIC.
# Tested on: S. aureus NCTC 8325
# protocol-details: MIC, S. aureus NCTC 8325 (CLSI broth microdilution / agar dilution)
# Type: cell-based, Staphylococcus aureus
# reported-conditions: Staphylococcus aureus; MSSA NCTC 8325; Table 6; read-out: MIC

- compound: "C=CCC(C(=O)Nc1ccc(Cl)c(C(F)(F)F)c1)C(=O)Nc1ccc(Cl)c(C(F)(F)F)c1"
  target-desc: "S. aureus NCTC 8325"
  qualifier-sign: "="
  MIC (µg/mL): 8
- compound: "C#Cc1cccc(NC(=O)C(CC=C)C(=O)Nc2cccc(C#C)c2)c1"
  target-desc: "S. aureus NCTC 8325"
  qualifier-sign: ">"
  MIC (µg/mL): 32
- compound: "O=C(Nc1cc(Cl)cc(Cl)c1)C(CCCl)C(=O)Nc1cc(C(F)(F)F)cc(C(F)(F)F)c1 (stereo not shown)"
  target-desc: "S. aureus NCTC 8325"
  qualifier-sign: "="
  MIC (µg/mL): 0.25
- compound: "O=C(Nc1cccc(Cl)c1)C(CCCl)C(=O)Nc1cccc(Cl)c1"
  target-desc: "S. aureus NCTC 8325"
  qualifier-sign: ">"
  MIC (µg/mL): 8
- compound: "O=C(Nc1ccc(Cl)c(C(F)(F)F)c1)C1(C(=O)Nc2ccc(Cl)c(C(F)(F)F)c2)CC1"
  target-desc: "S. aureus NCTC 8325"
  qualifier-sign: ">"
  MIC (µg/mL): 8
- compound: "O=C(Nc1cccc(O)c1)C(CCCl)C(=O)Nc1cccc(O)c1"
  target-desc: "S. aureus NCTC 8325"
  qualifier-sign: ">"
  MIC (µg/mL): 64
- compound: "C#Cc1cccc(NC(=O)C2(C(=O)Nc3cccc(C#C)c3)CC2)c1"
  target-desc: "S. aureus NCTC 8325"
  qualifier-sign: "="
  MIC (µg/mL): 8

###

Below, each entry is listed alongside its reported MIC.
# System: MRSA ATCC 33592
# protocol-details: MIC, MRSA ATCC 33592
# Format: cell-based, methicillin-resistant Staphylococcus aureus
# reported-conditions: Staphylococcus aureus; MRSA ATCC 33592; Table 6; read-out: MIC

- molecule: "CCCNC(=O)C(CCCl)C(=O)NCCC"
  MIC: "> 64 µg/mL"
- molecule: "C=CCNC(=O)C(CCCl)C(=O)Nc1ccc(Cl)c(C(F)(F)F)c1 (centres unmarked)"
  MIC: "> 64 µg/mL"
- molecule: "CCCCNC(=O)C(CCCl)C(=O)NCCCC"
  MIC: "> 64 µg/mL"
- molecule: "O=C(Nc1cc(Cl)cc(Cl)c1)C(CCCl)C(=O)Nc1cc(Cl)cc(Cl)c1"
  MIC: "0.25 µg/mL"
- molecule: "C=CCC(C(=O)Nc1ccc(Cl)c(C(F)(F)F)c1)C(=O)Nc1ccc(Cl)c(C(F)(F)F)c1"
  MIC: "> 32 µg/mL"

###

# Test system: S. aureus NCTC 8325
# protocol-details: MIC, S. aureus NCTC 8325 (CLSI broth microdilution / agar dilution)
# Assay type: cell-based, Staphylococcus aureus
# reported-conditions: Staphylococcus aureus; MSSA NCTC 8325; Table 6; read-out: MIC

- chemical-structure: "O=C(Nc1cccc(C(F)(F)F)c1)C(CCCl)C(=O)Nc1cccc(C(F)(F)F)c1"
  unit-of-measurement: "µg/mL"
  qualifier-sign: "="
  MIC: 2
- chemical-structure: "O=C(Nc1cccc([N+](=O)[O-])c1)C(CCCl)C(=O)Nc1cccc([N+](=O)[O-])c1"
  unit-of-measurement: "µg/mL"
  qualifier-sign: ">"
  MIC: 64
- chemical-structure: "O=C(Nc1ccc(OC(F)(F)F)cc1)C(CCCl)C(=O)Nc1ccc(OC(F)(F)F)cc1"
  unit-of-measurement: "µg/mL"
  qualifier-sign: "="
  MIC: 1
- chemical-structure: "O=C(Nc1cc(Cl)cc(Cl)c1)C(CCCl)C(=O)Nc1cc(Cl)cc(Cl)c1"
  unit-of-measurement: "µg/mL"
  qualifier-sign: "="
  MIC: 0.25
